# test name: Cytotoxicity against DENV serotype 2 strain New Guinea C infected african green monkey Vero B cells by virus yield-reduction assay
# Type: cell-based
# condition description: chlorocebus sabaeus
For each record, write down the corresponding CC50.
Numeric only. Scale: µM

QUERY: Indicate its recorded CC50; the compound in question is COc1ccc(C2=NN(c3nc(-c4ccc(-c5ccccc5)cc4)cs3)C(c3ccc(O)c(OC)c3)C2)cc1 (stereo not given)
RESULT: 25.6

QUERY: Recall and state the measured CC50 for COc1ccc(C2=NN(c3nc(-c4ccc(-c5ccccc5)cc4)cs3)C(c3ccc(O)cc3)C2)cc1 (stereo not given) .
RESULT: 99.3

QUERY: Read the entry COc1ccc(/C(C)=N/Nc2nc(-c3ccc(-c4ccccc4)cc3)cs2)cc1 and write its reported CC50.
RESULT: 117

QUERY: Specify reported CC50 for the compound shown: C/C(=N\Nc1nc(-c2ccc(-c3ccccc3)cc2)cs1)c1ccc([N+](=O)[O-])cc1
RESULT: 70.8

QUERY: Note down CC50 recorded for C/C(=N\Nc1nc(-c2ccc(Cl)cc2)cs1)c1ccc(O)cc1
RESULT: 125

QUERY: Return CC50 (reported value) for this compound: COc1ccc(C2=NN(c3nc(-c4ccc(Cl)cc4)cs3)C(c3ccc(O)c(OC)c3)C2)cc1 (stereo not given)
RESULT: 54.6

QUERY: Provide measured CC50 value, entry: Oc1ccc(C2=NN(c3nc(-c4ccc(-c5ccccc5)cc4)cs3)C(c3ccccc3)C2)cc1 (stereo not given)
RESULT: 86.8

* * *

# test name: Selectivity index, CC50 for african green monkey Vero B cells to EC50 for DENV serotype 2 strain New Guinea C by virus yield-reduction assay
# Type: toxicity, cell-based
# condition description: read-out: Selectivity Index
parameter measured: selectivity ratio
// keep it numeric: no unit symbol after the value

QUERY: For the compound COc1ccc(/C(C)=N/Nc2nc(-c3ccc(-c4ccccc4)cc3)cs2)cc1 , give its reported selectivity ratio.
RESULT: 7

QUERY: Specify selectivity ratio for COc1ccc(C2=NN(c3nc(-c4ccc(Cl)cc4)cs3)C(c3ccc(O)c(OC)c3)C2)cc1 (stereo not given) and stop.
RESULT: 8

QUERY: Report selectivity ratio for C/C(=N\Nc1nc(-c2ccc(Cl)cc2)cs1)c1ccc(O)cc1
RESULT: 95

QUERY: Consider the compound Oc1ccc(C2=NN(c3nc(-c4ccc(-c5ccccc5)cc4)cs3)C(c3ccccc3)C2)cc1 (stereo not given) . State its measured selectivity ratio.
RESULT: 10

QUERY: Query selectivity ratio for COc1ccc(C2=NN(c3nc(-c4ccc(-c5ccccc5)cc4)cs3)C(c3ccc(O)cc3)C2)cc1 (stereo not given)
RESULT: 5

QUERY: Answer with the recorded selectivity ratio for the compound listed here: C/C(=N\Nc1nc(-c2ccc(-c3ccccc3)cc2)cs1)c1ccc([N+](=O)[O-])cc1
RESULT: 6

QUERY: Look up and state reported selectivity ratio for COc1ccc(C2=NN(c3nc(-c4ccc(-c5ccccc5)cc4)cs3)C(c3ccc(O)c(OC)c3)C2)cc1 (stereo not given)
RESULT: 7

* * *

I'd appreciate it if you could supply CC50 values for the items below.
# test name: Cytotoxicity against DENV serotype 2 strain New Guinea C infected african green monkey Vero B cells by CPE-reduction assay
# Type: cell-based
# condition description: chlorocebus sabaeus
Number in µM, nothing else.

QUERY: Dear colleague, please send me the reported CC50 for COc1ccc(C2=NN(c3nc(-c4ccc(Cl)cc4)cs3)C(c3ccc(O)c(OC)c3)C2)cc1 (centres undefined) when you can.
RESULT: 2.4

QUERY: Specify reported CC50 for the molecule shown: Oc1ccc(C2=NN(c3nc(-c4ccc(-c5ccccc5)cc4)cs3)C(c3ccccc3)C2)cc1 (centres undefined)
RESULT: 79.2

QUERY: Name the recorded CC50 of the molecule listed here: C/C(=N\Nc1nc(-c2ccc(-c3ccccc3)cc2)cs1)c1ccc([N+](=O)[O-])cc1
RESULT: 82

QUERY: # return recorded CC50 for input COc1ccc(/C(C)=N/Nc2nc(-c3ccc(-c4ccccc4)cc3)cs2)cc1
RESULT: 200

QUERY: Could you please provide reported CC50 for COc1ccc(C2=NN(c3nc(-c4ccc(-c5ccccc5)cc4)cs3)C(c3ccc(O)c(OC)c3)C2)cc1 (centres undefined) ? Thanks!
RESULT: 16.8

QUERY: Given C/C(=N\Nc1nc(-c2ccc(Cl)cc2)cs1)c1ccc(O)cc1 , respond with its CC50.
RESULT: 145
